- protocol: OV-SAHO Cancer Cell Toxicity qHTS against the NCATS CANVASS Library (AID 1347348); further: nearly all actives have a fitted effect of over 55% in size
- conditionLabel: OV-SAHO viability, CellTiter-Glo luminescence, 72 h; series mostly up to 38.3 µM
Inconclusive results are not listed. Calls of active or inactive are those of the source. The call rests on the fitted dose curve; in most records, active means well fitted cell-killing curve with a large enough effect; inconclusive means small, poorly fitted or top-dose-only effect; inactive means flat fitted curve, though single readings scatter.
Hello, when you answer, please use one of the following outcomes: active, inactive

-- ask What classification did `CN1CCc2cc3c(c4c2[C@H]1[C@@H](O)c1ccccc1-4)OCO3` end up with in this test?
-- reply inactive

***
-- ask What classification did COC1C(O)C(OC(N)=O)C(Oc2ccc3c(O)c(NC(=O)c4ccc(O)c(CC=C(C)C)c4)c(=O)oc3c2C)OC1(C)C (centres undefined) end up with in this test?
-- reply inactive

-- ask What classification did COc1ccc([C@@H]2c3cc(OC)c(OC)cc3C(=O)C(C)C2C)cc1OC (some centres undefined) end up with in this test?
-- reply inactive

-- ask What classification did `C/C1=C/[C@@H](C)[C@H](O)C/C=C/CC/C=C/C(=O)O[C@@H]1[C@H](C)C(=O)/C=C/CC1CC(=O)NC(=O)C1` end up with in this test?
-- reply active

-- ask What classification did O=C1CC(c2cc(O)cc(O)c2)Oc2cc(O)ccc21 (centres undefined) end up with in this test?
-- reply inactive

-- ask What classification did C[C@@H]1O[C@@H](O[C@@H]2[C@@H](O)[C@H](O[C@@H]3[C@@H](O)[C@@H](O)C(O[C@H]4[C@H](OC(=O)[C@]56CCC(C)(C)C[C@H]5C5=CCC7[C@@]8(C)C[C@H](O)[C@H](O[C@@H]9C[C@H](CO)[C@@H](O)[C@H](O)[C@H]9O)[C@@](C)(CO)C8[C@H](O)C[C@@]7(C)[C@]5(C)CC6)OC[C@H](O)[C@@H]4O)O[C@H]3C)OC[C@H]2O)[C@H](O)[C@H](O)[C@H]1O (some centres undefined) end up with in this test?
-- reply inactive
